- experimental.target: HLA-B*58:01
- assay.overview: IEDB peptide-MHC binding, purified MHC/direct/fluorescence; filed as Kd, often an IC50 or EC50 that approximates it; bounds were set here for any values at or beyond the usual limits of such assays
- condition.label: source organism: Yellow fever virus
property.label: Kd

Input: Entry `PHAATIRVL` has what Kd?
Output: ≥ 20 µM

----------
- experimental.target: HLA-B*57:01
- assay.overview: IEDB peptide-MHC binding, purified MHC/direct/fluorescence; filed as Kd, often an IC50 or EC50 that approximates it; bounds were set here for any values at or beyond the usual limits of such assays
- condition.label: source organism: Vibrio cholerae O139
pKd: −log10 of the molar value.
property.label: pKd

Input: pKd for `EKDSNHNVL` ?
Output: ≤ 4.70

----------
- experimental.target: HLA-A*02:06
- assay.overview: IEDB peptide-MHC binding, purified MHC/competitive/radioactivity; filed as Kd, often an IC50 or EC50 that approximates it; bounds were set here for any values at or beyond the usual limits of such assays
- condition.label: source organism: Mammarenavirus machupoense
property.label: pKd
One number for each entry, as −log10 of the molar value.

Input: Query: pKd; subject: `KSYFTNAAL`
Output: 4.92

----------
- experimental.target: HLA-B*44:03
- assay.overview: IEDB peptide-MHC binding, purified MHC/competitive/radioactivity; filed as Kd, often an IC50 or EC50 that approximates it; bounds were set here for any values at or beyond the usual limits of such assays
- condition.label: source organism: Mammarenavirus brazilense
Please go through the items and note down their pKd.
Answers are plain numbers, as −log10 of the molar value.

// for each sequence in input: emit pKd
1. PELKKPITW
2. SEIQLQRLC

Output:
1. 4.85
2. 6.49

----------
For each record, write down the corresponding pKd.
- experimental.target: HLA-A*29:02
- assay.overview: IEDB peptide-MHC binding, purified MHC/competitive/radioactivity; filed as Kd, often an IC50 or EC50 that approximates it; bounds were set here for any values at or beyond the usual limits of such assays
- condition.label: source organism: Lassa virus Josiah
Answers are plain numbers, as −log10 of the molar value.

LYNFATCGLV 6.21

Pending sequence:
Input: Fill in the recorded pKd for this sequence, with HLA-A*29:02 as test system: `YQPSSGCYI`
Output: 4.84

----------
- experimental.target: HLA-A*69:01
- assay.overview: IEDB peptide-MHC binding, purified MHC/direct/fluorescence; filed as Kd, often an IC50 or EC50 that approximates it; bounds were set here for any values at or beyond the usual limits of such assays
- condition.label: source organism: Yersinia pestis
property.label: Kd
Your reply should be a number followed by the unit it is expressed in.

Input: Returns the measured Kd for the input sequence. Input: `TMPELAWAV`
Output: 7.8 nM

----------
- experimental.target: HLA-A*69:01
- assay.overview: IEDB peptide-MHC binding, purified MHC/direct/fluorescence; filed as Kd, often an IC50 or EC50 that approximates it; bounds were set here for any values at or beyond the usual limits of such assays
- condition.label: source organism: Salmonella enterica subsp. enterica serovar Paratyphi A
property.label: Kd (µM)
Give bare numbers, in µM.

Input: // Kd lookup, key: `AQLPRWVAT`
Output: 7

----------
- experimental.target: HLA-B*45:01
- assay.overview: IEDB peptide-MHC binding, purified MHC/competitive/radioactivity; filed as Kd, often an IC50 or EC50 that approximates it; bounds were set here for any values at or beyond the usual limits of such assays
- condition.label: source organism: Mammarenavirus machupoense
property.label: Kd

EELSLMYEAL 1590 nM
DELGNILSTY ≥ 70000 nM

Pending sequence:
Input: For the record `EEPVSLLPLS` , what value of Kd is listed for HLA-B*45:01?
Output: 565 nM

----------
- experimental.target: HLA-B*27:05
- assay.overview: IEDB peptide-MHC binding, purified MHC/competitive/fluorescence; filed as Kd, often an IC50 or EC50 that approximates it; bounds were set here for any values at or beyond the usual limits of such assays
- condition.label: source organism: Variola virus
property.label: Kd

Input: Given `SQIETGTPF` , state its recorded Kd.
Output: ≥ 20 µM

----------
- experimental.target: HLA-A*26:01
- assay.overview: IEDB peptide-MHC binding, purified MHC/competitive/fluorescence; filed as Kd, often an IC50 or EC50 that approximates it; bounds were set here for any values at or beyond the usual limits of such assays
- condition.label: source organism: Variola virus
property.label: Kd (nM)
Answers are plain numbers, in nM.

Input: Value wanted: Kd (HLA-A*26:01) of entry `SQIETGTPF`
Output: 1790

----------
- experimental.target: HLA-A*02:01
- assay.overview: IEDB peptide-MHC binding, purified MHC/competitive/fluorescence; bounds were set here for any values at or beyond the usual limits of such assays
- condition.label: source organism: Homo sapiens
property.label: pIC50
Numbers only, as −log10 of the molar value.

Input: Hello, I am looking for reported pIC50 with HLA-A*02:01 for `ILNRETLLDFV` . Could you help?
Output: 7.03

----------
- experimental.target: HLA-A*02:16
- assay.overview: IEDB peptide-MHC binding, purified MHC/competitive/fluorescence; filed as Kd, often an IC50 or EC50 that approximates it; bounds were set here for any values at or beyond the usual limits of such assays
- condition.label: source organism: Francisella tularensis subsp. tularensis FSC198
property.label: Kd (nM)
Answers are plain numbers, in nM.

Input: # get_value(readout='Kd', item= `TVIEGLDKL` )
Output: 194

----------
- experimental.target: HLA-B*57:01
- assay.overview: IEDB peptide-MHC binding, purified MHC/direct/fluorescence; filed as Kd, often an IC50 or EC50 that approximates it; bounds were set here for any values at or beyond the usual limits of such assays
- condition.label: source organism: Camelpox virus M-96
pKd: −log10 of the molar value.
Can you tell me pKd for the items I'm about to list?

Past entries and their recorded results:
KSALNDFDF 6.60
NYFNRMFHF ≤ 4.70

Provide pKd for all items below, preserving their order.
1. SQIETGTPF
2. KYFDDVTAF

Output:
≤ 4.70
≤ 4.70

----------
- experimental.target: HLA-A*31:01
- assay.overview: IEDB peptide-MHC binding, purified MHC/competitive/fluorescence; filed as Kd, often an IC50 or EC50 that approximates it; bounds were set here for any values at or beyond the usual limits of such assays
- condition.label: source organism: Burkholderia mallei SAVP1
property.label: Kd (nM)
One number for each entry, in nM.

Input: Any idea what its Kd is? The sequence is `AQHAPDAAK`
Output: 172

----------
- experimental.target: HLA-A*03:01
- assay.overview: IEDB peptide-MHC binding, purified MHC/direct/fluorescence; filed as Kd, often an IC50 or EC50 that approximates it; bounds were set here for any values at or beyond the usual limits of such assays
- condition.label: source organism: Burkholderia mallei
Would you kindly list Kd for each of these sequences?
Answers are plain numbers, in nM.

RVYRRRLAQ 323

Consider the additional sequence presented here.
Input: // Kd lookup, key: `AQHAPDAAK`
Output: 2120

----------
- experimental.target: HLA-A*31:01
- assay.overview: IEDB peptide-MHC binding, purified MHC/competitive/fluorescence; filed as Kd, often an IC50 or EC50 that approximates it; bounds were set here for any values at or beyond the usual limits of such assays
- condition.label: source organism: Vaccinia virus Copenhagen
property.label: Kd (µM)
Give bare numbers, in µM.

Input: Query (sequence): `KYFDDVTAF` ; field requested: Kd
Output: 2.95

----------
- experimental.target: HLA-B*40:01
- assay.overview: IEDB peptide-MHC binding, purified MHC/direct/fluorescence; filed as Kd, often an IC50 or EC50 that approximates it; bounds were set here for any values at or beyond the usual limits of such assays
- condition.label: source organism: Vibrio vulnificus
property.label: Kd

Input: Consider the sequence `VTFFCVMTY` and give its measured Kd.
Output: ≥ 20 µM

----------
- experimental.target: HLA-A*02:19
- assay.overview: IEDB peptide-MHC binding, purified MHC/competitive/fluorescence; filed as Kd, often an IC50 or EC50 that approximates it; bounds were set here for any values at or beyond the usual limits of such assays
- condition.label: source organism: Vibrio vulnificus YJ016
pKd: −log10 of the molar value.
property.label: pKd

Input: What pKd appears in the records for this sequence with HLA-A*02:19? `LTDEQKNAV`
Output: ≤ 4.70

----------
- experimental.target: HLA-A*30:02
- assay.overview: IEDB peptide-MHC binding, purified MHC/competitive/radioactivity; filed as Kd, often an IC50 or EC50 that approximates it; bounds were set here for any values at or beyond the usual limits of such assays
- condition.label: source organism: Dengue virus 2 Jamaica/1409/1983
Assignment: determine reported Kd for the given sequences.
Answers are plain numbers, in nM.

Would you please look over these solved cases?
AGPVSQHNY 23.2
AWNSLEVEDY 613
MANIFRGSY 113

From here, focus on the item given below.
Input: Which value of Kd has been reported for `SMANIFRGSY` in the records?
Output: 8.95

Source of measurements: the Immune Epitope Database (IEDB)
